Target: Human recombinant MMP-9 (Homo sapiens, UniProt P14780)
Construct: made in house; host or cells: MMP-9-transfected HT1080 cells (spent media)
Sequence (P14780 107-707 limits assumed): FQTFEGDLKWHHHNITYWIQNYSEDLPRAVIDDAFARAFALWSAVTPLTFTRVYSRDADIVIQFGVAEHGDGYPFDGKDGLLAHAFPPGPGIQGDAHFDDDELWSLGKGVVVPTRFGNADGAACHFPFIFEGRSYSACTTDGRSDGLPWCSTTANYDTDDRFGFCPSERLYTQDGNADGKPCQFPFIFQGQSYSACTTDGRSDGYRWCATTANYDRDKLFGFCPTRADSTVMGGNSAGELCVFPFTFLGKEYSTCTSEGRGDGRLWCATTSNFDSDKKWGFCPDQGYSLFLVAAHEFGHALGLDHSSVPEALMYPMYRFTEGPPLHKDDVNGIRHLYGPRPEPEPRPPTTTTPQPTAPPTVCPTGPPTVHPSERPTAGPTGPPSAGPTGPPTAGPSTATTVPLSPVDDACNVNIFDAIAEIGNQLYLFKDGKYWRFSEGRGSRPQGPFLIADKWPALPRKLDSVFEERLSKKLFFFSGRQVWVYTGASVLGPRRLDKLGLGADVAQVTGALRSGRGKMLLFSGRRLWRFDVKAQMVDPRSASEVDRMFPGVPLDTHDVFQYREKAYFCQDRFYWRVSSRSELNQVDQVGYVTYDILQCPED
Assay: In vitro MMP inhibition, Ki determination (fluorogenic substrate II)
Format: biochemical
Conditions: value in parenthesis
Response field label takes label 1 when Ki is strictly below 800 nM and label 0 in all other cases.

compound-smiles: COCCN1CCC(C(=O)NO)(S(=O)(=O)c2ccc(OCCCc3nc(-c4ccc(C5(c6ccccc6)CC5)cc4)no3)cc2)CC1
assay-target: Human recombinant MMP-9 (Homo sapiens, UniProt P14780)
class-name: label 1

compound-smiles: CC(C)c1cccc(NC(=O)CCCOc2ccc(S(=O)(=O)C3(C(=O)NO)CCOCC3)cc2)c1
assay-target: Human recombinant MMP-9 (Homo sapiens, UniProt P14780)
class-name: label 1

compound-smiles: O=C(NO)C1(S(=O)(=O)c2ccc(OCCc3cccc(-c4ccccc4Cl)c3)cc2)CCOCC1
assay-target: Human recombinant MMP-9 (Homo sapiens, UniProt P14780)
class-name: label 0

compound-smiles: O=C(NO)C1(S(=O)(=O)c2ccc(OCCc3cccc(-c4ccc(F)cc4)c3)cc2)CCOCC1
assay-target: Human recombinant MMP-9 (Homo sapiens, UniProt P14780)
class-name: label 0

compound-smiles: O=C(NO)C1(S(=O)(=O)c2ccc(OCCc3cccc(-c4ccncc4)c3)cc2)CCOCC1
assay-target: Human recombinant MMP-9 (Homo sapiens, UniProt P14780)
class-name: label 1

compound-smiles: CCCCc1ccc(-c2noc(CCCOc3ccc(S(=O)(=O)C4(C(=O)NO)CCOCC4)cc3)n2)c(C)c1
assay-target: Human recombinant MMP-9 (Homo sapiens, UniProt P14780)
class-name: label 0
